- studySystem: human Retinoid X Receptor beta (RXRb), RXRB (gene 6257)
- protocol: ATG_RXRb_TRANS: Attagene TRANS-FACTORIAL HepG2 Assay for human Retinoid X Receptor beta (RXRb) (AID 2283013)
Inconclusive results are not listed. The source made the active and inactive calls. The calls were made as follows: active = hit-call score of the fitted dose curve at least 0.9, where 1 is the maximum; inconclusive = response in the unintended direction; inactive = score below 0.9.
Classes used: class 1 (active), class 0 (inactive)

{"compound": "COC(=O)c1ccccc1N", "assignedLabel": "class 0"}
{"compound": "Brc1ccc(Oc2ccccc2)cc1", "assignedLabel": "class 1"}
{"compound": "CC(C)COC(=O)c1ccccc1C(=O)OCC(C)C", "assignedLabel": "class 1"}
{"compound": "[Cl-].[Cl-].[Hg+2]", "assignedLabel": "class 0"}
{"compound": "Oc1ccccc1Cl", "assignedLabel": "class 0"}
{"compound": "CC(C)(C)OOC(C)(C)CCC(C)(C)OOC(C)(C)C", "assignedLabel": "class 1"}
{"compound": "Cc1cccc(N)c1N", "assignedLabel": "class 1"}
{"compound": "Nc1ccc(Cl)cc1N", "assignedLabel": "class 1"}
{"compound": "N#CC(Br)(Br)C(N)=O", "assignedLabel": "class 1"}
{"compound": "CS(=O)(=O)NC(=O)c1cc(Oc2ccc(C(F)(F)F)cc2Cl)ccc1[N+](=O)[O-]", "assignedLabel": "class 0"}
{"compound": "[O-][Cl+]O", "assignedLabel": "class 0"}
{"compound": "CNC(=O)Oc1cccc2c1OC(C)(C)C2", "assignedLabel": "class 1"}
{"compound": "CC(C)(OOC(C)(C)c1ccccc1)c1ccccc1", "assignedLabel": "class 1"}
{"compound": "c1ccc(NNc2ccccc2)cc1", "assignedLabel": "class 1"}
{"compound": "CCCCCCCCCCCCCN1CC(C)OC(C)C1 (stereo not given)", "assignedLabel": "class 1"}
{"compound": "O=[N+]([O-])C(Br)(CO)CO", "assignedLabel": "class 0"}
{"compound": "O=C(N[C@H](c1ccccc1)[C@@H]1CN2CCC1CC2)c1c(Cl)ccc(C(F)(F)F)c1Cl", "assignedLabel": "class 0"}
{"compound": "CC(C)N(Cc1ccccc1)C(=O)C(C)(C)C", "assignedLabel": "class 0"}
{"compound": "O=[N+]([O-])c1ccc(Oc2ccc(Cl)cc2Cl)cc1", "assignedLabel": "class 0"}
{"compound": "CCN(CC)CCO", "assignedLabel": "class 0"}
{"compound": "OCCCBr", "assignedLabel": "class 0"}
{"compound": "Clc1ccc(C(c2ccc(Cl)cc2)C(Cl)(Cl)Cl)cc1", "assignedLabel": "class 0"}
{"compound": "O=Cc1ccco1", "assignedLabel": "class 0"}
{"compound": "O=C(Nc1ccccc1)c1ccccc1I", "assignedLabel": "class 0"}
{"compound": "Nc1ccc([N+](=O)[O-])cc1", "assignedLabel": "class 0"}
{"compound": "N#CC(Br)Br", "assignedLabel": "class 0"}
{"compound": "COC(=O)Nc1nc2ccccc2[nH]1", "assignedLabel": "class 0"}
{"compound": "Cc1ccc([N+](=O)[O-])cc1", "assignedLabel": "class 0"}
{"compound": "OCCCl", "assignedLabel": "class 0"}
{"compound": "Oc1ccc2ccc3cccc4ccc1c2c34", "assignedLabel": "class 1"}
{"compound": "CCCCCCCCOC(=O)c1ccc(C(=O)OCCCCCCCC)c(C(=O)OCCCCCCCC)c1", "assignedLabel": "class 1"}
{"compound": "CC(O)CCO (stereo not given)", "assignedLabel": "class 1"}
{"compound": "Cc1cc(N=Nc2ccccc2C)ccc1N", "assignedLabel": "class 0"}
{"compound": "CCC(C)c1ccc(O)cc1 (stereo not given)", "assignedLabel": "class 1"}
{"compound": "CO[C@@H]1[C@H](OC(=O)NC(=O)CCl)CC[C@]2(CO2)[C@H]1[C@@]1(C)O[C@@H]1CC=C(C)C", "assignedLabel": "class 0"}

Hey, just so you know, these numbers are from PubChem BioAssay (EPA / NIEHS).
